Assay: APR_HepG2_MicrotubuleCSK_24hr: Apredica 24-hour HepG2 Assay for Microtubule CSK Stabilty (AID 2282909)
Details: HepG2 microtubule cytoskeleton imaging, actives raise or lower the signal
Calls of active or inactive are those of the source. How the source made its calls: active means hit-call score of the fitted dose curve at least 0.9, where 1 is the maximum; inactive means score below 0.9.
Classes to choose from: true for active, false for inactive

Ask: Entry CC[C@H](C)[C@H]1O[C@]2(C=C[C@@H]1C)C[C@@H]1C[C@@H](C/C=C(\C)[C@@H](O[C@H]3C[C@H](OC)[C@@H](O[C@H]4C[C@H](OC)[C@@H](NC)[C@H](C)O4)[C@H](C)O3)[C@@H](C)/C=C/C=C3\CO[C@@H]4[C@H](O)C(C)=C[C@@H](C(=O)O1)[C@]34O)O2 : call = ?
Reply: true

Ask: Entry Nc1c(Cl)cc([N+](=O)[O-])cc1Cl : call = ?
Reply: false

Ask: Entry CCC(=NOC/C=C/Cl)C1=C(O)CC(C2CCOCC2)CC1=O (centres undefined) : call = ?
Reply: false

Ask: Entry CC(C)[C@H](C(=O)O[C@H](C#N)c1cccc(Oc2ccccc2)c1)c1ccc(Cl)cc1 : call = ?
Reply: false

* * *

Assay: Tanguay_ZF_120hpf_SNOU_legacy: (Legacy) Oregon State University Tanguay Lab 120 Hour Post-fertilization zebrafish Assay for Snout Malformation (AID 2283637)
Inconclusive results are not listed. Active and inactive are the calls of the source. The calls were made as follows: active = hit-call score of the fitted dose curve at least 0.9, where 1 is the maximum; inconclusive = response in the unintended direction; inactive = score below 0.9.
quantity.kind: AC50

Some entries whose results are on file:
- compound: "CON=C(C(=O)OC)c1ccccc1CON=C(C)c1cccc(C(F)(F)F)c1"
  AC50: "4.07 µM (active)"
- compound: "N#CSCSC#N"
  AC50: "inactive"
- compound: "FC(F)C(F)(F)OCC(Cn1cncn1)c1ccc(Cl)cc1Cl (configuration not stated)"
  AC50: "47 µM (active)"
- compound: "CC(C)N(C(=O)SCC(Cl)=C(Cl)Cl)C(C)C"
  AC50: "inactive"
- compound: "C#CCC1=C(C)C(OC(=O)C2C(C=C(C)C)C2(C)C)CC1=O (configuration not stated)"
  AC50: "inactive"

Batch of 7 compounds: report AC50 for each.
1. CC(=NC#N)N(C)Cc1ccc(Cl)nc1
2. CNC(=O)ON=C(C)SC
3. COc1cccc(C(=O)NN(C(=O)c2cc(C)cc(C)c2)C(C)(C)C)c1C
4. CCOP(=O)(SC(C)CC)N1CCSC1=O (configuration not stated)
5. COc1cc(OC)nc(Sc2cccc(Cl)c2C(=O)O)n1
6. O=[N+]([O-])c1cc(C(F)(F)F)c(Cl)c([N+](=O)[O-])c1Nc1ncc(C(F)(F)F)cc1Cl
7. COP(=O)(NC(C)=O)SC (configuration not stated)

Reply:
["inactive", "inactive", "inactive", "inactive", "inactive", "inactive", "inactive"]

* * *

Molecular target: human CYP2A6, CYP2A6 (gene 1548) (UniProt P11509)
Sequence (P11509 whole entry, looked up): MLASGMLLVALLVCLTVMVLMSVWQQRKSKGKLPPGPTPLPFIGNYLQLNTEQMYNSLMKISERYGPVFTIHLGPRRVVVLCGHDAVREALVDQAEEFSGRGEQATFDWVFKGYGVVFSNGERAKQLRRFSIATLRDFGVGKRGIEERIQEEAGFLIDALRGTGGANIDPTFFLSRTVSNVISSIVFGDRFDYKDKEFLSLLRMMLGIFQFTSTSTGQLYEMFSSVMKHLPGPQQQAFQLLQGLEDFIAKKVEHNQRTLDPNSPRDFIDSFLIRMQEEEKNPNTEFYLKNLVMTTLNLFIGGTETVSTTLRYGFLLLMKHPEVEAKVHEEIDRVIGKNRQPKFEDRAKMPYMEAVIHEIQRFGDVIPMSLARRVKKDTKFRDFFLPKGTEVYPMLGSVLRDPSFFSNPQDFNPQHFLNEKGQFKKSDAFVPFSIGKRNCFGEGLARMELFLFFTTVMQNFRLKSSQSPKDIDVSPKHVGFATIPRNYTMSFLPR
Test: NVS_ADME_hCYP2A6: NovaScreen (NVS) CYP450-related Enzyme Activity (ADME) Assay for human CYP2A6 (AID 2283099)
Method: NVS_ADME_hCYP2A6 is a biochemical, single-readout assay that uses extracted gene-proteins from insect cells in a cell-free assay. Measurements were taken 0.5 hour after chemical dosing in a 96-well plate.NVS_ADME_hCYP2A6 is one of one assay component(s) measured or calculated from the NVS_ADME_hCYP2A6 assay. […] This assay endpoint, NVS_ADME_hCYP2A6, was analyzed in the positive analysis fitting direction relative to Acetonitrile as the negative control and baseline of activity. […]
Inconclusive results are not listed. Active and inactive are the calls of the source. The calls were made as follows: active = hit-call score of the fitted dose curve at least 0.9, where 1 is the maximum; inconclusive = response in the unintended direction; inactive = score below 0.9.
Classes to choose from: Y for active, N for inactive

Solved entries (count: 3):
- compound: "FC(F)C(F)(F)OCC(Cn1cncn1)c1ccc(Cl)cc1Cl (centres undefined)"
  assigned.category: "N"
- compound: "S=C1NCCN1"
  assigned.category: "Y"
- compound: "Nc1c(Cl)cc([N+](=O)[O-])cc1Cl"
  assigned.category: "Y"

Next:
Ask: Entry CCOC(=O)CC(SP(=O)(OC)OC)C(=O)OCC (centres undefined) : call = ?
Reply: N

* * *

Read-out: xenobiotic metabolism (CYP1A1), CYP1A1 (gene 1543)
Test: CLD_CYP1A1_24hr: CellzDirect (CLD) Gene Expression Assay for xenobiotic metabolism (CYP1A1) at 24 hours (AID 2283673);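 further: CYP1A1 mRNA level by quantitative nuclease protection with chemiluminescence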
Records with an inconclusive call do not appear. Active and inactive are the calls of the source. Rule for the calls: active = hit-call score of the fitted dose curve at least 0.9, where 1 is the maximum; inconclusive = response in the unintended direction; inactive = score below 0.9.
quantity.kind: AC50

- compound: "CCC(=O)Nc1ccc(Cl)c(Cl)c1"
  AC50: "5.72 µM (active)"
- compound: "CCc1cccc(CC)c1N(COC)C(=O)CCl"
  AC50: "3.06 µM (active)"
- compound: "Nc1c(Cl)cc([N+](=O)[O-])cc1Cl"
  AC50: "9.35 µM (active)"
- compound: "CCOP(=S)(OCC)OC(Cl)C(Cl)(Cl)Cl (stereo unspecified)"
  AC50: "4.46 µM (active)"
- compound: "CC(C)[C@H](C(=O)O[C@H](C#N)c1cccc(Oc2ccccc2)c1)c1ccc(Cl)cc1"
  AC50: "inactive"

Pending compound:
Ask: Would you mind telling me what AC50 value was observed for CC(C)N(C(=O)SCC(Cl)=C(Cl)Cl)C(C)C ?
Reply: inactive

* * *

Experiment: APR_HepG2_MitoticArrest_72hr: Apredica 72-hour HepG2 Assay for Mitotic Arrest (AID 2282918)
Conditions: high-content imaging, actives raise or lower the signal
The source made the active and inactive calls. Rule for the calls: active = hit-call score of the fitted dose curve at least 0.9, where 1 is the maximum; inactive = score below 0.9.
Classes to choose from: active, inactive

Solved entries (count: 2):
- molecule: "O=c1ccc(=O)[nH][nH]1"
  assigned.category: "inactive"
- molecule: "C[N+]1(C)CCCCC1"
  assigned.category: "inactive"

Ask: Entry C=C(C)[C@H]1Cc2c(ccc3c2O[C@@H]2COc4cc(OC)c(OC)cc4[C@@H]2C3=O)O1 : call = ?
Reply: active

Ask: Entry CON=C(C(=O)OC)c1ccccc1CON=C(C)c1cccc(C(F)(F)F)c1 : call = ?
Reply: inactive

Ask: Entry CCOC(=O)COc1cc(-c2nn(C)c(OC(F)F)c2Cl)c(F)cc1Cl : call = ?
Reply: inactive

Ask: Entry N#CSCSC#N : call = ?
Reply: inactive

Ask: Entry C#CCC1=C(C)C(OC(=O)C2C(C=C(C)C)C2(C)C)CC1=O (configuration not stated) : call = ?
Reply: inactive

Ask: Entry CCC(=NOC/C=C/Cl)C1=C(O)CC(C2CCOCC2)CC1=O (configuration not stated) : call = ?
Reply: inactive

Ask: Entry CCc1cnc(C2=NC(C)(C(C)C)C(=O)N2)c(C(=O)O)c1 (configuration not stated) : call = ?
Reply: inactive

Ask: Entry CCOP(=O)(SC(C)CC)N1CCSC1=O (configuration not stated) : call = ?
Reply: inactive

Ask: Entry CCC(CC)Nc1c([N+](=O)[O-])cc(C)c(C)c1[N+](=O)[O-] : call = ?
Reply: inactive

Ask: Entry CCCSP(=O)(OCC)SCCC : call = ?
Reply: inactive

* * *

Assay: ATG_Sox_CIS: Attagene CIS-FACTORIAL HepG2 Assay for human SRY-box transcription factor (SOX) (AID 2282960)
Conditions: HepG2 Attagene cis-factorial SOX reporter, mRNA; actives raise or lower the signal
The source made the active and inactive calls. Rule for the calls: active = hit-call score of the fitted dose curve at least 0.9, where 1 is the maximum; inactive = score below 0.9.
quantity.kind: outcome

Some entries whose results are on file:
- molecule: "CN(C)[C@@H]1C(=O)C(C(N)=O)=C(O)[C@@]2(O)C(=O)C3=C(O)c4c(O)cccc4[C@@](C)(O)[C@H]3[C@H](O)[C@@H]12"
  recorded.measurement: "inactive"
- molecule: "CC(COc1ccc(Oc2ccccc2)cc1)Oc1ccccn1 (stereo not given)"
  recorded.measurement: "inactive"
- molecule: "CCC(=NOC/C=C/Cl)C1=C(O)CC(C2CCOCC2)CC1=O (stereo not given)"
  recorded.measurement: "inactive"
- molecule: "CCCCOC(=O)[C@@H](C)Oc1ccc(Oc2ccc(C#N)cc2F)cc1"
  recorded.measurement: "inactive"

Pending molecule:
Ask: Would you mind telling me what outcome value was observed for CN(C)NC(=O)CCC(=O)O ?
Reply: inactive

* * *

Assay: ATG_MRE_CIS: Attagene CIS-FACTORIAL HepG2 Assay for human Metal Responsive Element (MRE) (AID 2282954)
Settings: HepG2 MRE cis-reporter transcription, Attagene multiplex; actives raise or lower the signal
Active and inactive are the calls of the source. The calls were made as follows: active = hit-call score of the fitted dose curve at least 0.9, where 1 is the maximum; inactive = score below 0.9.
Classes to choose from: y for active, n for inactive

Solved entries (count: 5):
- molecule: "CCc1cnc(C2=NC(C)(C(C)C)C(=O)N2)c(C(=O)O)c1 (centres undefined)"
  assigned.category: "n"
- molecule: "CCC(CC)Nc1c([N+](=O)[O-])cc(C)c(C)c1[N+](=O)[O-]"
  assigned.category: "y"
- molecule: "O=C(O)c1cc(Oc2ccc(C(F)(F)F)cc2Cl)ccc1[N+](=O)[O-]"
  assigned.category: "n"
- molecule: "CSc1nc(NC(C)C)nc(NC(C)C)n1"
  assigned.category: "n"
- molecule: "Cc1cc(C2CC2)nc(Nc2ccccc2)n1"
  assigned.category: "y"

Ask: Entry CCC(=O)Nc1ccc(Cl)c(Cl)c1 : call = ?
Reply: n

Ask: Entry C[N+]1(C)CCCCC1 : call = ?
Reply: n

Ask: Entry COP(=O)(OC)OC(Br)C(Cl)(Cl)Br (centres undefined) : call = ?
Reply: n

Ask: Entry CNC(=O)ON=C(C)SC : call = ?
Reply: n

Ask: Entry CCCSP(=O)(OCC)Oc1ccc(Br)cc1Cl (centres undefined) : call = ?
Reply: n

Ask: Entry COP(=O)(NC(C)=O)SC (centres undefined) : call = ?
Reply: n

Ask: Entry COP(=O)(OC)C(O)C(Cl)(Cl)Cl (centres undefined) : call = ?
Reply: y

Ask: Entry CCCOCC(=Nc1ccc(Cl)cc1C(F)(F)F)n1ccnc1 : call = ?
Reply: n

Ask: Entry CCOC(=O)COc1cc(-c2nn(C)c(OC(F)F)c2Cl)c(F)cc1Cl : call = ?
Reply: n

Ask: Entry COP(=O)(OC)SCn1c(=O)oc2cc(Cl)cnc21 : call = ?
Reply: n

Ask: Entry CC1=NNC(=O)N(/N=C/c2cccnc2)C1 : call = ?
Reply: n
